- Test system: HCC-2998 colon
- Test method notes: NCI tumour cell line growth inhibition, 48 h; in the data active means GI50 below about 0.43 µM; inactive means the rest
Possible outcomes: active, inactive

{"Entry smiles": "Cn1cc(-c2ccc3ncc(-c4ccc(CC(=O)Nc5cc(C(C)(C)C)nn5C)cc4)cc3c2)cn1", "Class": "inactive"}
{"Entry smiles": "Cc1ccc2ccc3c4ccccc4ccc3c2c1", "Class": "inactive"}
{"Entry smiles": "COC(=O)[C@]12CC[C@@H](C)[C@H](C)[C@@H]1C1=CC[C@@H]3[C@@]4(C)C(C=O)=C[C@@](C)(COS(C)(=O)=O)C4=CC[C@@]3(C)[C@]1(C)CC2", "Class": "active"}
{"Entry smiles": "OCc1ccc(-c2ccc(-c3ccc(CO)o3)o2)o1", "Class": "inactive"}
{"Entry smiles": "O=c1[nH]c(=S)[nH]c(O)c1/C=C1\\C=Nc2ccccc21", "Class": "inactive"}
{"Entry smiles": "CCOC(=O)c1cc(C(=O)c2ccc(OC)c(OC)c2)n2c1ccc1ccc3cccnc3c12", "Class": "inactive"}
{"Entry smiles": "O=C1Nc2ccc(-c3cccnc3)cc2/C1=C/c1cc(Br)c(O)c(Br)c1", "Class": "inactive"}

----------
- System: HCT-116 colon
- Test method notes: NCI tumour cell line growth inhibition, 48 h
Metric: TGI

{"Compound": "C#COc1cccc(Nc2ncnc3cc(NC(=O)[C@@H](C)Cl)ccc23)c1", "Value observed": "> 62.5 µM"}
{"Compound": "C/C(CCN(C)C)=N/O", "Value observed": "12.5 µM"}
{"Compound": "OCCN1CCN(c2nc(N3CCCC3)c3nc(Cl)c(NCc4ccccc4)nc3n2)CC1", "Value observed": "17.6 µM"}
{"Compound": "O=c1c2[nH]cnc2n(-c2ccccc2)c(=S)n1-c1ccccc1", "Value observed": "> 100 µM"}
{"Compound": "CCOC1c2nc3ccccc3nc2-c2ccccc2N1C(C)=O (configuration not stated)", "Value observed": "> 100 µM"}
{"Compound": "CC(=O)OC12c3ccccc3C(c3ccccc31)C1C(=O)N(N=C(C)C)C(=O)C12 (configuration not stated)", "Value observed": "> 100 µM"}
{"Compound": "Cc1ccc2ccc3c4ccccc4ccc3c2c1", "Value observed": "> 100 µM"}
{"Compound": "CCOC(=O)c1cn(C)c2c(OC)c3ccccc3c(OC)c2c1=O", "Value observed": "38.5 µM"}
{"Compound": "COc1ccc(C2C(=O)c3ccc(OC)cc3OC2c2cccnc2)cc1 (configuration not stated)", "Value observed": "> 100 µM"}
{"Compound": "CC(C)(NO)/C(=N\\O)c1ccccc1", "Value observed": "> 10 µM"}
{"Compound": "COC(=O)c1ccc(NC(N)=NCCC(C)(C)c2ccc(C(F)(F)F)cc2)nc1", "Value observed": "3.3 µM"}
{"Compound": "O=C1C=CC2(CCC23C=CC(=O)O3)O1 (configuration not stated)", "Value observed": "> 100 µM"}

----------
Reported values of GI50 for individual entries
- System: UO-31 renal
- Test method notes: NCI tumour cell line growth inhibition, 48 h
Metric: GI50

{"Molecule": "O=C1c2ccccc2-c2c1c1ccccc1c(=O)n2CCCNCCNCCCn1c2c(c3ccccc3c1=O)C(=O)c1ccccc1-2", "Metric": "GI50", "Value observed": "342 nM"}
{"Molecule": "CCc1ccc(Oc2c(-c3ccc(OCc4ccc(Cl)cc4)cc3O)nn(C)c2C(F)(F)F)cc1", "Metric": "GI50", "Value observed": "432 nM"}
{"Molecule": "COC(=O)[C@]12CC[C@@H](C)[C@H](C)[C@@H]1C1=CC[C@@H]3[C@@]4(C)C(C=O)=C[C@@](C)(COS(C)(=O)=O)C4=CC[C@@]3(C)[C@]1(C)CC2", "Metric": "GI50", "Value observed": "158 nM"}
{"Molecule": "C/C(=N\\NC(=S)N1CCC1)c1ccccn1", "Metric": "GI50", "Value observed": "18.8 nM"}
{"Molecule": "CN(C)CCNC(=O)Nc1ccc(N(C)c2ccnc(Nc3ccc(CS(C)(=O)=O)cc3)n2)cc1", "Metric": "GI50", "Value observed": "> 25000 nM"}
{"Molecule": "O=C(Nc1ccc(-n2cc(-c3ccncc3)c(-c3ccc(Cl)c(O)c3)n2)cc1)c1cc(C(F)(F)F)cc(C(F)(F)F)c1", "Metric": "GI50", "Value observed": "2800 nM"}
{"Molecule": "O=C(Nc1ccc(-n2cc(-c3ccncc3)c(-c3ccc(O)c(Cl)c3)n2)cc1)Nc1cc(C(F)(F)F)cc(C(F)(F)F)c1", "Metric": "GI50", "Value observed": "1940 nM"}
{"Molecule": "CCOC(=O)c1cc(C(=O)c2ccc(OC)c(OC)c2)n2c1ccc1ccc3cccnc3c12", "Metric": "GI50", "Value observed": "891 nM"}
{"Molecule": "OCC1OC(OC2(CO)OC(CO)C(O)C2O)C(O)C(O)C1O (configuration not stated)", "Metric": "GI50", "Value observed": "> 100000 nM"}
{"Molecule": "Cc1ccc(C(=O)Nc2ccc(Oc3cc4cnn(C)c4cc3-c3cn[nH]c3)c(F)c2)c(=O)n1-c1ccc(F)cc1", "Metric": "GI50", "Value observed": "> 100000 nM"}
{"Molecule": "CN(C)C1C(=O)C(C(N)=O)=C(O)C2(O)C(=O)C3=C(O)c4c(O)cccc4C(C)(O)C3CC12.[Cl][Sb]([Cl])[Cl] (configuration not stated)", "Metric": "GI50", "Value observed": "2620 nM"}
{"Molecule": "COc1cc([C@@H]2c3cc4c(cc3[C@H](SC(=N)N)[C@H]3COC(=O)[C@H]23)OCO4)cc(OC)c1OC", "Metric": "GI50", "Value observed": "2600 nM"}
{"Molecule": "O=C(O)c1ccccc1NCn1nc(-c2ccccc2O)oc1=S", "Metric": "GI50", "Value observed": "> 100000 nM"}
{"Molecule": "C/C(=C/CCC(C)[C@@H]1CC[C@]2(C)C3=C(CC[C@@]12C)[C@@]1(C)CCC(=O)C(C)(C)[C@@H]1CC3)C(=O)O (some centres not stated)", "Metric": "GI50", "Value observed": "1080 nM"}
{"Molecule": "OCc1ccc(-c2ccc(-c3ccc(CO)o3)o2)o1", "Metric": "GI50", "Value observed": "> 100000 nM"}
{"Molecule": "CCN(CC)CCCC(Nc1c2ccc(Cl)cc2nc2ccc(OC)cc12)c1ccc(Cl)cc1 (configuration not stated)", "Metric": "GI50", "Value observed": "1580 nM"}
{"Molecule": "NCCCNc1nc2ccccc2c2c(=O)c3cc(Cl)ccc3sc12", "Metric": "GI50", "Value observed": "1280 nM"}
